test system: SW-620; experiment: NCI tumour cell line growth inhibition, 48 h
Calls of active or inactive are those of the source. No stated cut-off is given here; in the data, active = GI50 up to about 1.1 µM and inactive = higher.
For each entry below, report its GI50 value.

{"compound": "Cc1cc2nc3[nH]nc(N)c3nc2cc1C", "test-system": "SW-620", "endpoint-result": "> 100 µM (inactive)"}

For every item below, please supply its GI50.
1. Cc1c(C)c2c(c(N)c1C#N)C(=O)N(OS(=O)(=O)c1ccccc1)C2=O
2. CC(=O)NC(C)(C)C1CCC(C)CC1 (centres undefined)
3. CCC1C(c2ccccc2O)c2cc3c(cc2OC1N1CCOCC1)OCO3 (centres undefined)
4. S=C(N/N=C(\C(=N/NC(=S)N1CCCCC1)c1ccccn1)c1ccccn1)N1CCCCC1
5. CC(=O)OCC(OC(C)=O)C(OC(C)=O)C(/C=N\Nc1nc2ccccc2c(=O)[nH]1)=N\Nc1nc2ccccc2c(=O)[nH]1 (centres undefined)
6. [N-]=[N+]=Nc1ccc(CCN2CCN(c3cccc(C(F)(F)F)c3)CC2)cc1I
7. CCCCCCCCCC(=O)CC(=O)c1ccc(O)cc1O
8. COc1ccc(CC(=O)NCCc2ccc(OC)c(OC)c2OC)cc1

["20.8 µM (inactive)", "> 100 µM (inactive)", "15.9 µM (inactive)", "9.12 µM (inactive)", "> 100 µM (inactive)", "70.3 µM (inactive)", "36.5 µM (inactive)", "> 100 µM (inactive)"]

* * *

test system: EKVX; experiment: NCI tumour cell line growth inhibition, 48 h
Active and inactive are the calls of the source. No stated cut-off is given here; in the data, active = GI50 up to about 1.1 µM and inactive = higher.
quantity-kind: GI50

{"smiles-notation": "CSc1ccc(NC(=O)Nc2cc(C)ccn2)cc1", "GI50": "> 100 µM (inactive)"}
{"smiles-notation": "CSc1ccc(NC(=O)CCl)cc1", "GI50": "> 10 µM (inactive)"}

Kindly consider the entry below.
Param item = CCCCc1c2c(nc3c1CCC/C3=C\c1ccccc1)/C(=C/c1ccccc1)CCC2 ; retrieve measured GI50. > 100 µM (inactive)

* * *

For each entry below, report its GI50 value.
system: OVCAR-5; test: NCI tumour cell line growth inhibition, 48 h
The source made the active and inactive calls. No stated cut-off is given here; in the data, active = GI50 up to about 1.1 µM and inactive = higher.

Look over these answered cases.
{"molecule": "CO/C(=N\\N=C\\c1ccc(OC)cc1OC)c1ccncc1", "test-system": "OVCAR-5", "quantity-kind": "GI50", "endpoint-result": "> 10 µM (inactive)"}
{"molecule": "Cc1cnc2nc(-c3sccc3C)cc(O)c2c1", "test-system": "OVCAR-5", "quantity-kind": "GI50", "endpoint-result": "> 24 µM (inactive)"}
{"molecule": "CCOc1ccc(NC2=NC(=O)C(CC(=O)Nc3ccccc3[N+](=O)[O-])S2)cc1 (configuration not stated)", "test-system": "OVCAR-5", "quantity-kind": "GI50", "endpoint-result": "> 100 µM (inactive)"}

For every item below, please supply its GI50.
1. CCOc1ccc2nc3nc(O)nc(C)c3c(NC(C)(CO)CO)c2c1
2. CSC(=N)NNC(=O)CCC(=O)Nc1ccccc1C(F)(F)F
3. O=C(O)c1ccc(S(=O)(=O)c2ccccc2)c([N+](=O)[O-])c1
4. COc1ccccc1NC(=O)C(=O)Cc1cnc2ccccc2n1
5. O=S(=O)(Nc1nccs1)c1ccc([As](=O)(O)O)cc1
6. Cc1nc2ccc(Cl)cc2c(Cl)c1CCCl
7. CCC(=O)C(c1ccccc1)c1ccccn1 (configuration not stated)
8. C(/C=N/c1ccccc1)=C(/Nc1ccccc1)C12CC3CC(CC(C3)C1)C2

> 100 µM (inactive)
> 100 µM (inactive)
> 100 µM (inactive)
> 100 µM (inactive)
> 100 µM (inactive)
38.5 µM (inactive)
> 100 µM (inactive)
15.2 µM (inactive)

Query for OVCAR-5: what GI50 does the record show for c1ccc(N/N=C2\CC(c3ccccc3)Oc3ccccc32)cc1 (configuration not stated) ? 46.1 µM (inactive)

* * *

test system: SK-MEL-2; test: NCI tumour cell line growth inhibition, 48 h
The source made the active and inactive calls. No stated cut-off is given here; in the data, active = GI50 up to about 1.1 µM and inactive = higher.
For each entry below, report its GI50 value.

{"compound": "COc1ccc2c(c1)c1c3n2CCNN=C3CCC1", "GI50": "> 100 µM (inactive)"}
{"compound": "N#CC(c1ccccc1)N(CCCCCCN(C(=O)c1ccccc1)C(C#N)c1ccccc1)C(=O)c1ccccc1 (configuration not stated)", "GI50": "23.6 µM (inactive)"}
{"compound": "COc1ccc(-c2onc(-c3c(C)cc(C)cc3C)c2C2=NCCCN2)cc1", "GI50": "36.1 µM (inactive)"}

For every item below, please supply its GI50.
1. CCN(CC)CC(=N)N(CC)c1ccccc1
2. O=C1c2ccccc2CN1c1ccc(OCCN2CCCCC2)cc1
3. Cc1ccc(C(=O)O)cc1S(=O)(=O)Nn1cnc2ccc(S(=O)(=O)Nc3ccccc3C(=O)O)cc2c1=O
4. Cc1cn2c(/C=N/NC(=N)N)c(-c3cccc([N+](=O)[O-])c3)nc2s1

["> 100 µM (inactive)", "> 10 µM (inactive)", "61 µM (inactive)", "1.96 µM (inactive)"]

* * *

For each entry below, report its GI50 value.
test system: HCT-15

Look over these answered cases.
{"molecule": "Cc1c(O)c(O)cc[n+]1C1OC(CO)C(O)C1O (stereo not drawn)", "endpoint-result": "> 100 µM"}
{"molecule": "CCOC(=O)C1(C)C2=CC=C(O2)C(C)(C)C2=CC=C(O2)C(C)(C)C2=CC=C(O2)C(C)(C)C2=CC=C1O2", "endpoint-result": "> 100 µM"}

Query for HCT-15: what GI50 does the record show for CCC(C)(O)c1cn(-c2cccc(S(=O)(=O)O)c2)nn1 (stereo not drawn) ? > 100 µM

* * *

tested on: HCT-116; assay: NCI tumour cell line growth inhibition, 48 h
The source made the active and inactive calls. Rule as the data show it: active = GI50 up to about 1.1 µM and inactive = higher. Where a SMILES comes first, the peptide text is derived from it. The star is where a group is joined. Boc = CC(C)(C)OC(=O)*
quantity-kind: GI50

{"molecule": "CCCCC(=O)c1c(O)ccc2c(C)cc(=O)oc12", "endpoint-result": "> 100 µM (inactive)"}

For every item below, please supply its GI50.
1. CC(C)[C@H](NC(=O)[C@@H](O)[C@H](N)Cc1ccccc1)C(=O)N[C@@H](Cc1ccccc1)C(=O)O
2. CCNC1C2(CCCCC2)NC(=O)C12CCCCC2 (centres undefined)
3. C[C@H](CC[C@@H](O)C(C)(C)O)[C@H]1CC[C@@]2(C)[C@@H]3CC=C4[C@@H](CC[C@H](O)C4(C)C)[C@]3(C)C(=O)C[C@]12C
4. COc1cc(/C=N\O[Si](C)(C)C(C)(C)C)ccc1O[Si](C)(C)C(C)(C)C

> 100 µM (inactive)
> 100 µM (inactive)
22 µM (inactive)
32.4 µM (inactive)

For every item below, please supply its GI50.
1. CC(C)(C)OC(=O)NCC(c1c[nH]c2cc(Br)ccc12)c1c[nH]c2cc(Br)ccc12
2. Cc1nc2c(O)cc3c4c(n(Cc5ccccc5)c3c2nc1C)C(=O)CCC4
3. CC(NC(=O)C(NC(=O)OC(C)(C)C)C(C)C)C(=O)NCC(=O)O (stereo not drawn) (Boc-Val-Ala-Gly-OH; configuration not given here)
4. Cn1cc(NC(=O)c2cc(NC(=O)CCCCCCCCC(=O)Nc3cc(C(=O)Nc4cc(C(=O)NCCC(N)N)n(C)c4)n(C)c3)cn2C)cc1C(=O)NCCC(=N)N

17 µM (inactive)
34.4 µM (inactive)
> 100 µM (inactive)
20 µM (inactive)

* * *

For each entry below, report its GI50 value.
tested on: HOP-62; test: NCI tumour cell line growth inhibition, 48 h
Active and inactive are the calls of the source. Rule as the data show it: active = GI50 up to about 1.1 µM and inactive = higher.

{"compound": "CCOC(=O)/C=C(/C(=O)OCC)n1ccc(=O)n(Cc2cnnn2CCCCOC(C)=O)c1=O", "GI50": "> 100 µM (inactive)"}

For every item below, please supply its GI50.
1. Cc1cccc(Cl)c1NC(=O)c1cccc([N+](=O)[O-])c1O
2. N#C/C(=C\c1ccc2[nH]ccc2c1)C(=O)c1ccc(O)c(O)c1
3. Clc1ccc(/C=c2\nc(-c3ccccc3)n3c2nc2ccccc23)cc1

20.1 µM (inactive)
> 52 µM (inactive)
38.4 µM (inactive)

For every item below, please supply its GI50.
1. CC1(C)SC2C(C(=O)O)N=C(Cc3ccccc3)N2C1C(=O)O (configuration not stated)
2. CC(=O)[C@]12OC(=O)C3=C1[C@H](CC[C@@H]3C)[C@@H](C)C[C@H]2C=C(C)C

1: 32.1 µM (inactive); 2: 8.61 µM (inactive)

Param item = O=C1OCC(O)=C1C(c1ccc(Cl)cc1)c1cc2c(cc1O)OCO2 (configuration not stated) ; retrieve measured GI50. > 100 µM (inactive)

* * *

tested on: SK-MEL-5; test: NCI tumour cell line growth inhibition, 48 h
Calls of active or inactive are those of the source. Cut-off read from the data, not from the text of the source: active = GI50 up to about 1.1 µM and inactive = higher.
quantity-kind: GI50

For every item below, please supply its GI50.
1. COc1ccc2c(c1)c1c3n2CCNN=C3CCC1
2. CCCCc1c2c(nc3c1CCC/C3=C\c1ccccc1)/C(=C/c1ccccc1)CCC2
3. CC(C)=CCc1c(OC(=O)c2c(C)cc(O)cc2O)cc(CO)c(CO)c1O

1. > 100 µM (inactive)
2. > 100 µM (inactive)
3. 14.8 µM (inactive)

For every item below, please supply its GI50.
1. CN1CCN(Cc2nc3c(s2)CCc2sccc2-3)CC1
2. N#Cc1c2ccc([N+](=O)[O-])cc2c(=O)n2c1[nH]c1ccc(C(F)(F)F)cc12
3. CC(C)[C@H](NC(=O)[C@@H](O)[C@H](N)Cc1ccccc1)C(=O)N[C@@H](Cc1ccccc1)C(=O)O
4. NCCCCN(CCCN)Cc1ccccc1
5. CC(C)(C)OC(=O)NCC(c1c[nH]c2cc(Br)ccc12)c1c[nH]c2cc(Br)ccc12

1. 36.4 µM (inactive)
2. 29.4 µM (inactive)
3. > 100 µM (inactive)
4. > 100 µM (inactive)
5. 17.3 µM (inactive)

For every item below, please supply its GI50.
1. CSc1ccc(NC(=O)Nc2cc(C)ccn2)cc1
2. CC1CNC(c2ccc(-c3nc(-c4ccc(C5=NC(C)CN5)cc4)nc(N(C)C)n3)cc2)=N1 (stereo not given)
3. COc1ccc(C(SC2C(O)C(CO)OC2n2ccc(N)nc2=O)(c2ccccc2)c2ccc(OC)cc2)cc1 (stereo not given)
4. CCCCCCCCCCCCCCCCCCNC(=S)N/C=C1\C(=O)Nc2ccccc2C1=O

1: > 100 µM (inactive); 2: 3.8 µM (inactive); 3: 12.9 µM (inactive); 4: 24.2 µM (inactive)

Measured values drawn from ChEMBL document CHEMBL1201862 for this set.
